For each entry below, report its polymerase ribozyme fitness (log ratio) value.
B1: TPR 5TU (parent)
chain: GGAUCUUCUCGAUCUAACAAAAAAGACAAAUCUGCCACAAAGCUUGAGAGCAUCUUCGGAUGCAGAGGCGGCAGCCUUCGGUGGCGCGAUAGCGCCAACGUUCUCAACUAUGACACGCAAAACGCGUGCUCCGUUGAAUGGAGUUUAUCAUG

- Variants of: B1
- ASSAY_NAME: polymerase ribozyme fitness, log enrichment relative to wild type (log ratio); higher = more active; in vitro selection for triplet polymerase activity
This sample holds only a part of the variants without activity.
Please reply with the value in numeric form only.

Could you share which polymerase ribozyme fitness (log ratio) value was measured for C5G A17G ? -0.0409

Let us now turn to C36G U146G -3.97

Next entry: G83C A121U 0.406

Can you handle G124C G141C next? -1.16

Then C5A G81U C85G C99U U134A ? -4.04

Same lookup for C38A U56G G136C U146C , please. -3.92

// repeat for C51U G92U and report -1.86

How about this variant: G25U C96A A142G -4.05
